Numbers sourced from ChEMBL document CHEMBL1201862.

Test system: ACHN
Assay: NCI tumour cell line growth inhibition, 48 h
Calls of active or inactive are those of the source. Rule as the data show it: active = GI50 up to about 1.1 µM and inactive = higher.
Choose one outcome from this list and give only that: active, inactive

What did the test return for Cc1cc2c(cc1-c1cc3c(cc1C)C(C(C)C)=C(O)C(=O)/C3=C\Nc1c(C)n(C)n(-c3ccccc3)c1=O)/C(=C/Nc1c(C)n(C)n(-c3ccccc3)c1=O)C(=O)C(O)=C2C(C)C ?
inactive

====

System: LOX IMVI
Assay: NCI tumour cell line growth inhibition, 48 h
Activity calls are given as the source filed them. Cut-off read from the data, not from the text of the source: active = GI50 up to about 1.1 µM and inactive = higher.
quantity_name: GI50

Worked examples, 3 compounds total:
| compound | test_value |
| --- | --- |
| Cc1cc(NS(=O)(=O)c2ccc(Nc3c4ccccc4nc4c(C(=O)Nc5ccc(S(=O)(=O)N=C(N)N)cc5)ccc(Cl)c34)cc2)no1 | 19.6 µM (inactive) |
| N#Cc1c(N)nc2c3c1NC(=O)C(C(N)=O)C3c1ccccc1O2 (stereo not given) | > 100 µM (inactive) |
| CC(=O)OCC1OC(Nn2c(=O)[nH]c3ccccc3c2=O)C(OC(C)=O)C(OC(C)=O)C1OC(C)=O (stereo not given) | > 100 µM (inactive) |

Could you report GI50 for every entry in the following list?
1. C/C(CCn1[nH]c(=O)ccc1=O)=N\N=C(N)N
2. CCOC(=O)CSc1[nH]c(NC(=S)Nc2ccccc2)c(C(N)=O)c1C(N)=O
3. C=C1C(=O)O[C@H]2[C@H]1[C@@H](OC(=O)C=C(C)C)CC1=C[C@@H](C[C@@]3(C)O[C@@H]23)OC1=O
4. CC1CC(C)C(=O)C(C(=O)CC2CC(=O)NC2=O)C1 (stereo not given)

1: > 100 µM (inactive); 2: > 10 µM (inactive); 3: 2.27 µM (inactive); 4: > 100 µM (inactive)

Could you report GI50 for every entry in the following list?
1. CC(=O)OCCc1cc2ccccc2oc1=O
2. O=C1N/C(=N/N=C/C(O)C(O)C(O)CO)N/C1=C\c1c[nH]c2ccccc12 (stereo not given)
3. CCOC(=O)CCc1c(C(=O)OCC)[nH]c(/C=C2\NC(=O)C(C)=C2CC)c1C

1: > 100 µM (inactive); 2: > 100 µM (inactive); 3: 22.5 µM (inactive)

====

Tested on: SF-539
Experiment: NCI tumour cell line growth inhibition, 48 h
The source made the active and inactive calls. No stated cut-off is given here; in the data, active = GI50 up to about 1.1 µM and inactive = higher.
quantity_name: GI50

| compound | GI50 |
| --- | --- |
| Cc1cc(NS(=O)(=O)c2ccc(Nc3c4ccccc4nc4c(C(=O)Nc5ccc(S(=O)(=O)N=C(N)N)cc5)ccc(Cl)c34)cc2)no1 | 18.5 µM (inactive) |
| COc1cc(-c2nc3ccccn3c2/N=C/c2cc(Br)cc(Br)c2O)ccc1O | 27.4 µM (inactive) |
| S=c1cc(-c2ccc3c(c2)OCO3)s[nH]1 | > 100 µM (inactive) |

Could you report GI50 for every entry in the following list?
1. N#Cc1c(N)nc2c3c1NC(=O)C(C(N)=O)C3c1ccccc1O2 (stereo not given)
2. CN1CCN(c2cc(-c3cc4ccccc4o3)oc(=O)c2C#N)CC1
3. C[C@@H]1CC[C@@H](C)[C@](C)(CCc2ccoc2)C/C=C\C=C/1C(=O)O
4. COC(=O)C1=CC(=O)OC1(OO)c1ccc(Br)cc1 (stereo not given)
5. CC(=O)c1c2c(c3ccccc3c1O)O[C@@H]1OCC[C@H]21

1: 74 µM (inactive); 2: 98.4 µM (inactive); 3: > 50 µM (inactive); 4: > 100 µM (inactive); 5: > 100 µM (inactive)

Could you report GI50 for every entry in the following list?
1. NNC(=O)CCc1ccc2ccc3ccccc3c2c1
2. O=c1[nH]nc(-c2ccccc2)n1-n1cnnc1

1: 54.6 µM (inactive); 2: > 100 µM (inactive)
